System: HCC-2998 colon
METHOD_NOTES: NCI tumour cell line growth inhibition, 48 h
Where a SMILES comes first, the peptide text is derived from it. The star is where a group is joined. Boc = CC(C)(C)OC(=O)*; OSu = O=C1CCC(=O)N1O*

# COMPOUND, TGI
rows = [
    ("O=C1c2ccccc2C(Br)(Br)c2ccccc21", "> 31.6 µM"),
    ("Cc1nc(C)c(C(=O)NNC(N)=S)cc1C(=O)NNC(N)=S", "> 100 µM"),
    ("C=C(C)C(=O)O[C@H]1C[C@@]23O[C@@H]2CCC(=C[C@H]2OC(=O)C(=C)[C@H]12)COC3O (stereo partly specified)", "> 100 µM"),
    ("CC(NC(=O)C(NC(=O)OC(C)(C)C)C(C)C)C(=O)NCC(=O)ON1C(=O)CCC1=O (stereo not drawn) (Boc-Val-Ala-Gly-OSu; configuration not given here)", "> 100 µM"),
    ("COC(=O)CCC(=O)NC1=C(NCc2ccccc2)C(=O)c2ccccc2C1=O", "> 100 µM"),
    ("O=C1CCC2(CC1CC(Sc1ccccc1)Sc1ccccc1)OCCO2 (stereo unspecified)", "> 100 µM"),
    ("COc1cccc(-c2nc3sccn3c2-c2ccnc(NCCCNS(=O)(=O)c3cccc(F)c3)c2)c1", "> 100 µM"),
    ("CCc1cc(Cc2cc(Cl)c(NC(=O)C(=O)C3NC(=O)NC3=O)c(CC)c2)cc(Cl)c1NC(=O)C(=O)C1NC(=O)NC1=O (stereo unspecified)", "> 100 µM"),
    ("COC(=O)/C=C1/CCC(C(=O)OC)N1 (stereo unspecified)", "> 100 µM"),
    ("CCC12CCCN(Cc3ccccc3)C1c1c([nH]c3ccccc13)C(C(=O)OC)C2 (stereo unspecified)", "> 10 µM"),
    ("Cc1ccsc1/C=N/Nc1nc2ccccc2s1", "> 100 µM"),
]
